- test-protocol: qHTS for Inhibitors of the Functional Ribonucleoprotein Complex (vRNP) of Lymphocytic Choriomeningitis Arenaviruses (LCMV): Viability assay - alamar blue signal for LCMV Primary Screen (AID 1347085); note: nearly all actives have a fitted effect of over 80% in size
- study-conditions: alamar blue viability counter-screen, LCMV vRNP screen cells; series mostly up to 57.5 µM
Records with an inconclusive call do not appear. Calls of active or inactive are those of the source. Calls come from the whole dose curve; tested in HEK293 reporter line.
// allowed return values: yes (1) (active), no (0) (inactive)

Consider the worked cases shown below.
OCC1O[C@H](O)C(Cl)C(O)C1O (some centres undefined)	no (0)
COc1cc2c(cc1O)C(Cc1ccc(O)cc1)[N+](C)(C)CC2 (centres undefined)	no (0)

Exam item: Please let me know the test result on file for CCCc1ccc(OC)cc1 .
Marked response: no (0)

Exam item: Hi, sorry to bother you, what did the test record for O=C1c2c(O)cc(O)cc2O[C@H](c2cc(O)c(O)c(O)c2)[C@H]1O ?
Marked response: no (0)
